Entries and their pIC50 values follow.
# SYSTEM_TESTED: Acetylcholinesterase (Rattus norvegicus, UniProt P37136)
# Sequence (P37136 32-614): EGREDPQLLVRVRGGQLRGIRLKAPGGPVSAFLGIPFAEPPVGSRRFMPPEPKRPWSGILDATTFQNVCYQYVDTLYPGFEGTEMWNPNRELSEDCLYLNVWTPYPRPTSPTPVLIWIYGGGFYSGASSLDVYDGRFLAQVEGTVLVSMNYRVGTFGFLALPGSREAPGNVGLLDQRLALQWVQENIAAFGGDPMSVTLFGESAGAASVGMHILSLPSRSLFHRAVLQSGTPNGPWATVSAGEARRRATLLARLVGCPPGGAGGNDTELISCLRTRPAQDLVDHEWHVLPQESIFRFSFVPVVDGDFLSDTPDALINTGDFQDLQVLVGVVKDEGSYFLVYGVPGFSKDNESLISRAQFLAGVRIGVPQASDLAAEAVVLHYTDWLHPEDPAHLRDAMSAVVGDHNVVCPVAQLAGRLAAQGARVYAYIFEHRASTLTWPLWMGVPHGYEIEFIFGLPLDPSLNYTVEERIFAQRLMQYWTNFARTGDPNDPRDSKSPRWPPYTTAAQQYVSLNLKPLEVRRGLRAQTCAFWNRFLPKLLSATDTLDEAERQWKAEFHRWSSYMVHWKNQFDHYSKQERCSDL
Where a name gives a salt, the structure may show the parent alone.
# pIC50 = -log10(concentration in molar units)

I have this compound here, COc1ccc(CN2CCOc3ccc(C(=O)CCC4CCN(Cc5ccccc5)CC4)cc3C2)cc1 [Example 5, dihydrochloride] , and I need its recorded pIC50. 7.16

Please answer likewise for Cl.Cl.O=C(CCC1CCN(Cc2ccccc2)CC1)c1ccc2c(c1)CN(Cc1ccccc1)CCO2 [3-B, dihydrochloride] 6.92

Please answer likewise for O=C(CCC1CCN(Cc2ccccc2)CC1)c1ccc2c(c1)CN(Cc1ccc([N+](=O)[O-])cc1)CCO2 [8-5] 7.90

----------
Where a name gives a salt, the structure may show the parent alone.
Parameter pIC50, tested on Acetylcholinesterase (Rattus norvegicus, UniProt P37136), listed per item.
# pIC50 = -log10(concentration in molar units)

The cases that follow already have their pIC50 on record.
# COMPOUND, pIC50
rows = [
    ("O=C(CCC1CCN(Cc2ccccc2)CC1)c1ccc2c(c1)CNCCO2 [3-A, dihydrochloride]", 7.76),
    ("O=CN1CCOc2ccc(C(=O)CCN3CCN(Cc4ccccc4)CC3)cc2C1 [Example 6, dihydrochloride]", 6.97),
]

I have this compound here, CC(=O)N1CCOc2ccc(C(=O)CCC3CCN(Cc4ccccc4)CC3)cc2C1 [Example 4, hydrochloride] , and I need its recorded pIC50. 7.26
